Target: human OX2R (Homo sapiens, UniProt O43614)
Construct: expressed in transfected cells; host or cells: CHO (Chinese hamster ovary) cells grown under G418 selection
Sequence (O43614 whole entry): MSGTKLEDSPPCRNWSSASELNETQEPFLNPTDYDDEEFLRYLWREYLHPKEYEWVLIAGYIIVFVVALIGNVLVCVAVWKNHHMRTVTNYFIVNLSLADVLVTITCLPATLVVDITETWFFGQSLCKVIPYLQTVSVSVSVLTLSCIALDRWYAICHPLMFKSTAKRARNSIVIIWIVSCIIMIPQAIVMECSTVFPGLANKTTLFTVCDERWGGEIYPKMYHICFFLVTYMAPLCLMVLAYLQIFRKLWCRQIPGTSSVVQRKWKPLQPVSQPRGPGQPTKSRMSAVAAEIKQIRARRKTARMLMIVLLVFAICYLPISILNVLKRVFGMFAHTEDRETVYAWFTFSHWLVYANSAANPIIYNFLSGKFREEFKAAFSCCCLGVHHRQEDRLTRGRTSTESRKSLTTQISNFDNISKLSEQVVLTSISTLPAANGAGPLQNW
Test: IPOne (IP-1 accumulation) assay in CHO cells expressing human OX2R
Assay type: cell-based
Settings: percent effect vs mean max effect of a reference compound at 1 uM (100% activity vs Orexin A), human OX2R
observable: % of maximum agonist effect (relative to Orexin A) (%)
Numbers only here, please. The scale is %.

CCN(C(=O)NC(CN1CCOC1=O)C(F)(F)F)[C@@H](c1cc(-c2cn3ccnc3c(OC)n2)c(OC)cn1)C(F)(F)F (stereo partly drawn) : 99.8

Please look at this molecule and report its % of maximum agonist effect (relative to Orexin A): CCN(C(=O)N[C@@H](CCC(F)(F)F)C(F)(F)F)C(c1cc(-c2cc(OC)c3ncccc3c2)c(OC)cn1)C(F)(F)F (stereo partly drawn)
101.3

Answer with the recorded % of maximum agonist effect (relative to Orexin A) of CCN(C(=O)N[C@@H](CCCF)C(F)(F)F)[C@@H](c1cc(-c2cn3cc(C)nc3c(OC)n2)c(OC)cn1)C(F)(F)F only.
102.4

Origin of measurements: patent US12692262B2
